- MEASUREMENT DESCRIPTION: Selectivity ratio of Ki for NET to IC50 for DAT
This section presents compounds with their documented Ratio values.
API note: the answer field is a bare number with no unit suffix.

C=CCN1C2CCC1[C@@H](C(=O)OC)[C@@H](c1ccc(SC)cc1)C2 (stereo not given in full): 28

Recorded result, `CCSc1ccc([C@H]2C[C@@H]3CC[C@H]([C@H]2C(=O)OC)N3C)cc1` , Ratio: 5

Recorded result, `COC(=O)[C@H]1[C@@H](c2ccc(SC(F)(F)F)cc2)C[C@@H]2CC[C@H]1N2C` , Ratio: 10

Recorded result, COC(=O)[C@H]1[C@@H](c2ccc([S+](C)[O-])cc2)C[C@@H]2CC[C@H]1N2C (stereo not given in full) , Ratio: 6
